System: Rattus norvegicus
Experimental protocol: AUC in rat at 5 mg/kg, po
Format: ADME, organism-based, Plasma
Parameters: dose 5 mg/kg, route oral
Experimental context: in vivo

# Smiles text, AUC [µg/h/mL]
data = [
    ("COC[C@]12Cc3cnn(-c4ccc(F)cc4)c3C=C1CCN(S(=O)(=O)c1ccc(F)cc1)C2", 0.621),
    ("CC(C)(C)c1ccc(S(=O)(=O)N2CCC3=Cc4c(cnn4-c4ccc(F)cc4)C[C@]3(C)C2)cc1", 1.009),
    ("COC[C@]12Cc3cnn(-c4ccc(F)cc4)c3C=C1CCN(S(=O)(=O)c1ccccc1)C2", 0.112),
    ("CC(C)(C)c1ccc(S(=O)(=O)N2CCC3=Cc4c(cnn4-c4ccc(F)cc4)C[C@]3(CN3CCOCC3)C2)cc1", 0.302),
    ("COC[C@]12Cc3cnn(-c4ccc(F)cc4)c3C=C1CCN(S(=O)(=O)c1ccc(C(F)(F)F)cc1)C2", 0.966),
    ("COC[C@]12Cc3cnn(-c4ccc(F)cc4)c3C=C1CCN(S(=O)(=O)c1ccc(C(C)(C)C)cc1)C2", 0.43),
]

----------
Measured on: Glucocorticoid receptor (Homo sapiens)
Sequence (P04150 whole entry): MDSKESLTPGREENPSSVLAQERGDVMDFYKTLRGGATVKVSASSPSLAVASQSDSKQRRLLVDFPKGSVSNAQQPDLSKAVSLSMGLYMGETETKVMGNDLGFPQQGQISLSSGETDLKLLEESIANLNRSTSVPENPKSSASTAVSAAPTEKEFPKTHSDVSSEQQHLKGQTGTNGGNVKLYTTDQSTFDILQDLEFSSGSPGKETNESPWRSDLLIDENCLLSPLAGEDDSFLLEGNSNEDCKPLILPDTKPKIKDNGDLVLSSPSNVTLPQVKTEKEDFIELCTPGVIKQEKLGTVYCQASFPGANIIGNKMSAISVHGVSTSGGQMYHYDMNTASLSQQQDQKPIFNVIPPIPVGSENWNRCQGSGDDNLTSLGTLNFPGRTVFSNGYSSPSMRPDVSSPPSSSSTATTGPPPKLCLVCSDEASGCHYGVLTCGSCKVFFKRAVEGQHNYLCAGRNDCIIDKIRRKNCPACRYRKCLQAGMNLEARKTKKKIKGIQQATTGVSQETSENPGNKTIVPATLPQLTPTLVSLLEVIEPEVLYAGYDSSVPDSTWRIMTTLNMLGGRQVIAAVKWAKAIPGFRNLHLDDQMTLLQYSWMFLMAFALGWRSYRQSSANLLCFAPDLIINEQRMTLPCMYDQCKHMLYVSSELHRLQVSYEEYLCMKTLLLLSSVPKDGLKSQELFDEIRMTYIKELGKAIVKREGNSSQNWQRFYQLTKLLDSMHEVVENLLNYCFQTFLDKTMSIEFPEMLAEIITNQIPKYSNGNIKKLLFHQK
Experimental protocol: Antagonist activity at GR in SW1353/MMTV5 cells assessed as inhibition of dexamethasone-induced luciferase expression
Assay type: functional, cell-based
# maps each entry to its Ki

# Compound, Ki
records = [
    ("CN(C)CCNC[C@]12Cc3cnn(-c4ccc(F)cc4)c3C=C1CCN(S(=O)(=O)c1ccc(C(C)(C)C)cc1)C2", "60 nM"),
    ("O=S(=O)(c1ccccc1)N1CCC2=Cc3c(cnn3-c3ccc(F)cc3)C[C@]2(CN2CCCCC2)C1", "5.8 nM"),
    ("CCN(CC)C[C@]12Cc3cnn(-c4ccc(F)cc4)c3C=C1CCN(S(=O)(=O)c1ccc(C(C)(C)C)cc1)C2", "14 nM"),
    ("Cc1ccc(S(=O)(=O)N2CCC3=Cc4c(cnn4-c4ccc(F)cc4)C[C@]3(C)C2)cc1", "96 nM"),
    ("CCOC[C@]12Cc3cnn(-c4ccc(F)cc4)c3C=C1CCN(S(=O)(=O)c1ccc(C(F)(F)F)cc1)C2", "6.8 nM"),
    ("CC(C)NC[C@]12Cc3cnn(-c4ccc(F)cc4)c3C=C1CCN(S(=O)(=O)c1ccc(C(C)(C)C)cc1)C2", "17 nM"),
    ("O=S(=O)(c1ccc(F)cc1)N1CCC2=Cc3c(cnn3-c3ccc(F)cc3)C[C@]2(CN2CCCC2)C1", "8 nM"),
    ("CC(C)(C)c1ccc(S(=O)(=O)N2CCC3=Cc4c(cnn4-c4ccc(F)cc4)C[C@]3(COCCO)C2)cc1", "8.7 nM"),
    ("CC(C)(C)c1ccc(S(=O)(=O)N2CCC3=Cc4c(cnn4-c4ccc(F)cc4)C[C@]3(CN3CCC3)C2)cc1", "11 nM"),
    ("CN(C)C[C@]12Cc3cnn(-c4ccc(F)cc4)c3C=C1CCN(S(=O)(=O)c1ccccc1)C2", "10 nM"),
    ("COCCOC[C@]12Cc3cnn(-c4ccc(F)cc4)c3C=C1CCN(S(=O)(=O)c1ccccc1)C2", "2.9 nM"),
    ("C[C@]12Cc3cnn(-c4ccc(F)cc4)c3C=C1CCN(S(=O)(=O)c1ccc(C(F)(F)F)cc1)C2", "78 nM"),
    ("COCCCOC[C@]12Cc3cnn(-c4ccc(F)cc4)c3C=C1CCN(S(=O)(=O)c1ccc(C(C)(C)C)cc1)C2", "1.6 nM"),
    ("O=S(=O)(c1ccccc1)N1CCC2=Cc3c(cnn3-c3ccc(F)cc3)C[C@]2(CN2CCCC2)C1", "4.9 nM"),
    ("Fc1ccc(CC23Cc4cnn(-c5ccc(F)cc5)c4C=C2CCN(Cc2cccnc2)C3)cc1 (racemic)", "> 1000 nM"),
    ("O=S(=O)(c1ccccc1)N1CCC2=Cc3c(cnn3-c3ccc(F)cc3)CC2(Cc2ccc(F)cc2)C1 (racemic)", "36 nM"),
]
